This section presents sequences with their documented shrunken log2 fold change values.
Test system: Escherichia coli TOP10
measurement-description: shrunken log2 fold change of peptide-encoding DNA abundance (4.5 h post-induction vs induction); higher = less antimicrobial activity (less host growth inhibition)
run-parameters: time post-induction: 4.5 h; library: site-saturation at positions 5, 18, 19, 20
Just the number, please, no unit attached.

Some solved entries appear below for comparison.
sequence_text=RRIRLRPPRLPRPRPRPQRQPRP measured_value=0.316
sequence_text=RRIRLRPPRLPRPRPRPPLWPRP measured_value=0.447
sequence_text=RRIRSRPPRLPRPRPRPKFNPRP measured_value=-0.573
sequence_text=RRIRIRPPRLPRPRPRPEFFPRP measured_value=0.179
sequence_text=RRIRMRPPRLPRPRPRPYNHPRP measured_value=-0.491
sequence_text=RRIRSRPPRLPRPRPRPTEGPRP measured_value=0.139
sequence_text=RRIRYRPPRLPRPRPRPNNFPRP measured_value=-0.418
sequence_text=RRIRERPPRLPRPRPRPAMSPRP measured_value=-0.0829

Query sequence follows.
[ask] Query for Escherichia coli TOP10: what shrunken log2 fold change does the record show for RRIRMRPPRLPRPRPRPWTLPRP ?
[reply] -0.0343

###

Test system: Escherichia coli TOP10
measurement-description: shrunken log2 fold change of peptide-encoding DNA abundance (4.5 h post-induction vs induction); higher = less antimicrobial activity (less host growth inhibition)
run-parameters: time post-induction: 4.5 h; library: site-saturation at positions 5, 18, 19, 20
Response key: 1 means shrunken log2 fold change >= -0.2; -1 means shrunken log2 fold change < -0.2.

sequence_text=RRIRERPPRLPRPRPRPRIQPRP category_label=-1

Consider now this further sequence.
[ask] Is shrunken log2 fold change at least -0.2? Consider RRIRGRPPRLPRPRPRPIEIPRP
[reply] 1

###

Test system: Escherichia coli TOP10
measurement-description: shrunken log2 fold change of peptide-encoding DNA abundance (4.5 h post-induction vs induction); higher = less antimicrobial activity (less host growth inhibition)
run-parameters: time post-induction: 4.5 h; library: site-saturation at positions 5, 18, 19, 20
We'd kindly ask you to apply these shrunken log2 fold change classes: lowest (below -0.08), middle (-0.08 to below 0.1), highest (0.1 or more)

Worked examples follow.
sequence_text=RRIRPRPPRLPRPRPRPMKRPRP category_label=highest
sequence_text=RRIRIRPPRLPRPRPRPCHTPRP category_label=middle
sequence_text=RRIRMRPPRLPRPRPRPLHFPRP category_label=lowest
sequence_text=RRIRQRPPRLPRPRPRPVGKPRP category_label=lowest
sequence_text=RRIRFRPPRLPRPRPRPVVRPRP category_label=highest
sequence_text=RRIRTRPPRLPRPRPRPRIDPRP category_label=middle
sequence_text=RRIRSRPPRLPRPRPRPKMYPRP category_label=middle
sequence_text=RRIRRRPPRLPRPRPRPISKPRP category_label=lowest

[ask] Could you place RRIRQRPPRLPRPRPRPLAFPRP in its proper category? Many thanks.
[reply] lowest

###

Test system: Escherichia coli TOP10;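 also: peptides expressed intracellularly from a pBAD plasmid library in pooled LB shake-flask culture, induced with 0.3% L-arabinose, DNA abundance read by NGS, three biological replicates, DESeq2 with apeglm shrinkage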
measurement-description: shrunken log2 fold change of peptide-encoding DNA abundance (4.5 h post-induction vs induction); higher = less antimicrobial activity (less host growth inhibition)
run-parameters: time post-induction: 4.5 h; library: site-saturation at positions 5, 18, 19, 20
Response key: Yes means shrunken log2 fold change >= -0.001; No means shrunken log2 fold change < -0.001.

sequence_text=RRIRLRPPRLPRPRPRPHQNPRP assay_target="Escherichia coli TOP10" category_label=No
sequence_text=RRIRGRPPRLPRPRPRPEGTPRP assay_target="Escherichia coli TOP10" category_label=Yes
sequence_text=RRIRQRPPRLPRPRPRPKTSPRP assay_target="Escherichia coli TOP10" category_label=No

[ask] Is shrunken log2 fold change at least -0.001? Consider RRIRQRPPRLPRPRPRPVWSPRP
[reply] No

[ask] Is shrunken log2 fold change at least -0.001? Consider RRIRCRPPRLPRPRPRPGNSPRP
[reply] No

[ask] Is shrunken log2 fold change at least -0.001? Consider RRIRNRPPRLPRPRPRPNLEPRP
[reply] Yes

[ask] Is shrunken log2 fold change at least -0.001? Consider RRIRTRPPRLPRPRPRPHEDPRP
[reply] No

[ask] Is shrunken log2 fold change at least -0.001? Consider RRIRGRPPRLPRPRPRPQMGPRP
[reply] Yes

[ask] Is shrunken log2 fold change at least -0.001? Consider RRIRLRPPRLPRPRPRPVGCPRP
[reply] Yes

[ask] Is shrunken log2 fold change at least -0.001? Consider RRIRDRPPRLPRPRPRPINLPRP
[reply] No

[ask] Is shrunken log2 fold change at least -0.001? Consider RRIRYRPPRLPRPRPRPVTNPRP
[reply] No

[ask] Is shrunken log2 fold change at least -0.001? Consider RRIRHRPPRLPRPRPRPNMTPRP
[reply] Yes

[ask] Is shrunken log2 fold change at least -0.001? Consider RRIRMRPPRLPRPRPRPLVSPRP
[reply] Yes

[ask] Is shrunken log2 fold change at least -0.001? Consider RRIRIRPPRLPRPRPRPDYDPRP
[reply] No

[ask] Is shrunken log2 fold change at least -0.001? Consider RRIRNRPPRLPRPRPRPDNNPRP
[reply] No
